Each entry below carries its recorded pest or weed control at 70 g/ha.
Tested on: Key Broadleaf Weed and Crop Species
Test Name: Post-Emergent Test II: postemergent herbicidal activity, visual rating after 14 d (Table 7)
Format: in vivo
Measurement Context: post-emergence, 336 h, lambsquarters (Chenopodium album), 70 g ai/ha, read-out: Visual Growth Reduction (%) 14 Days After Application CHEAL
Method: Herbicidal evaluations were made visually on a scale of 0 to 100 where 0 represents no activity and 100 represents complete plant death. […] A weighed amount, determined by the highest rate to be tested, of each test compound was placed in a 25 mL glass vial and was dissolved in 4 mL of a 97:3 v/v mixture of acetone and DMSO to obtain concentrated stock solutions. […]

Compound: COC(=O)c1nc(-c2cc3c(cc2Cl)OC(F)(F)O3)c(F)c(N)c1Cl [Compound 12]
pest or weed control at 70 g/ha: 0 to 29%

Compound: COC(=O)c1nc(-c2cc3c(cc2F)OC(F)(F)O3)cc(N)c1Cl [Compound 32]
pest or weed control at 70 g/ha: 95 to 100%

Compound: COC(=O)c1nc(-c2c(F)cc3c(c2F)OC(F)(F)O3)cc(N)c1Cl [Compound 46]
pest or weed control at 70 g/ha: 95 to 100%

Compound: Nc1c(F)c(-c2ccc(F)c3c2OC(F)(F)O3)nc(C(=O)O)c1Cl [Compound 77]
pest or weed control at 70 g/ha: 95 to 100%

Compound: COC(=O)c1nc(-c2ccc3c(c2)OC(F)(F)O3)nc(N)c1OC [Compound 62]
pest or weed control at 70 g/ha: 0 to 29%

Compound: Nc1c(F)c(-c2cccc3c2OCO3)nc(C(=O)O)c1Cl [Compound 72]
pest or weed control at 70 g/ha: 95 to 100%

Compound: COc1c(C(=O)O)nc(-c2ccc3c(c2)OC(F)(F)O3)c(F)c1N [Compound 25]
pest or weed control at 70 g/ha: 0 to 29%

Compound: COC(=O)c1nc(-c2ccc3c(c2F)OC(F)(F)O3)c(Cl)c(N)c1Cl [Compound 4]
pest or weed control at 70 g/ha: 0 to 29%

Compound: COC(=O)c1nc(-c2ccc3c(c2)OC(F)(F)O3)c(C)c(N)c1Cl [Compound 49]
pest or weed control at 70 g/ha: 30 to 44%

Compound: C=Cc1c(C(=O)OC)nc(-c2cc3c(cc2F)OCO3)c(F)c1N [Compound 31]
pest or weed control at 70 g/ha: 0 to 29%

Compound: CC1(C)Oc2ccc(-c3nc(C(=O)O)c(Cl)c(N)c3F)cc2O1 [Compound 19]
pest or weed control at 70 g/ha: 0 to 29%

Compound: COC(=O)c1nc(-c2cc3c(cc2F)OC(F)(F)O3)c(F)c(N)c1OC [Compound 22]
pest or weed control at 70 g/ha: 0 to 29%

Compound: COC(=O)c1nc(-c2cc(F)c3c(c2)OC(F)(F)O3)c(F)c(N)c1Cl [Compound 17]
pest or weed control at 70 g/ha: 0 to 29%

Compound: COC(=O)c1nc(-c2cc3c(cc2F)OCO3)cc(N)c1Cl [Compound 45]
pest or weed control at 70 g/ha: 95 to 100%

Compound: COC(=O)c1nc(-c2ccc3c(c2OC)OC(F)(F)O3)cc(N)c1Cl [Compound 47]
pest or weed control at 70 g/ha: 30 to 44%

Compound: Nc1cc(-c2ccc3c(c2Cl)OC(F)(F)O3)nc(C(=O)O)c1Cl [Compound 34]
pest or weed control at 70 g/ha: 75 to 84%

Compound: COC(=O)c1nc(-c2cc3c(cc2F)OCO3)nc(N)c1OC [Compound 69]
pest or weed control at 70 g/ha: 0 to 29%

Compound: C=Cc1c(C(=O)O)nc(-c2cc3c(cc2F)OC(F)(F)O3)c(F)c1N [Compound 28]
pest or weed control at 70 g/ha: 0 to 29%

Compound: COc1c(N)nc(-c2cc3c(cc2F)OC(F)(F)O3)nc1C(=O)O [Compound 68]
pest or weed control at 70 g/ha: 0 to 29%

Compound: Nc1cc(-c2ccc3c(c2F)OC(F)(F)O3)nc(C(=O)O)c1Cl [Compound 41]
pest or weed control at 70 g/ha: 85 to 94%

Compound: COC(=O)c1nc(-c2cc3c(cc2F)OC(F)(F)O3)nc(N)c1OC [Compound 64]
pest or weed control at 70 g/ha: 0 to 29%

Compound: C=Cc1c(C(=O)O)nc(-c2ccc3c(c2)OC(F)(F)O3)c(F)c1N [Compound 30]
pest or weed control at 70 g/ha: 0 to 29%

Compound: Nc1c(Cl)c(C(=O)O)nc(-c2cc3c(cc2F)OC(F)(F)O3)c1Cl [Compound 3]
pest or weed control at 70 g/ha: 0 to 29%

Compound: COC(=O)c1nc(-c2cc3c(cc2Cl)OC(F)(F)O3)cc(N)c1Cl [Compound 40]
pest or weed control at 70 g/ha: 0 to 29%

Compound: Nc1c(Cl)c(C(=O)O)nc(-c2ccc3c(c2F)OC(F)(F)O3)c1Cl [Compound 5]
pest or weed control at 70 g/ha: 0 to 29%

Compound: COC(=O)c1nc(-c2ccc3c(c2)OC(F)(F)O3)c(F)c(N)c1OC [Compound 24]
pest or weed control at 70 g/ha: 0 to 29%

Compound: COC(=O)c1nc(-c2cc3c(cc2F)OC(F)(F)O3)c(F)c(N)c1F [Compound 21]
pest or weed control at 70 g/ha: 0 to 29%

Compound: COC(=O)c1nc(-c2ccc(I)c3c2OC(F)(F)O3)c(F)c(N)c1Cl [Compound 79]
pest or weed control at 70 g/ha: 85 to 94%

Compound: COC(=O)c1nc(-c2ccc3c(c2)OC(F)(F)O3)nc(N)c1Cl [Compound 60]
pest or weed control at 70 g/ha: 75 to 84%

Compound: COC(=O)c1nc(-c2cc3c(cc2F)OC(F)(F)O3)c(F)c(N)c1Cl [Compound 9]
pest or weed control at 70 g/ha: 85 to 94%

Compound: Nc1cc(-c2cc3c(cc2F)OC(F)(F)O3)nc(C(=O)O)c1Cl [Compound 42]
pest or weed control at 70 g/ha: 85 to 94%

Compound: COc1c(C(=O)O)nc(-c2cc3c(cc2F)OC(F)(F)O3)c(F)c1N [Compound 23]
pest or weed control at 70 g/ha: 0 to 29%

Compound: COC(=O)c1nc(-c2ccc3c(c2)OC(F)(F)O3)c(F)c(N)c1Cl [Compound 6]
pest or weed control at 70 g/ha: 95 to 100%

Compound: COC(=O)c1nc(-c2ccc3c(c2)OC(C)(C)O3)nc(N)c1Cl [Compound 55]
pest or weed control at 70 g/ha: 60 to 74%

Compound: Nc1nc(-c2ccc3c(c2F)OC(F)(F)O3)nc(C(=O)O)c1Cl [Compound 59]
pest or weed control at 70 g/ha: 85 to 94%

Compound: Nc1c(F)c(-c2ccc3c(c2F)OC(F)(F)O3)nc(C(=O)O)c1Cl [Compound 11]
pest or weed control at 70 g/ha: 95 to 100%

----------
Tested on: Direct Seeded Rice and weed species
Test Name: Postemergence herbicidal activity in direct seeded rice, visual rating after 20-22 days and probit GR20/GR50/GR80/GR90 (Table 14)
Assay type: in vivo
Measurement Context: ECHCO (Echinochloa colonum); probit analysis, dose for 90 percent growth reduction
// values below are reported GR90 ECHCO

Mol: COc1c(N)nc(-c2ccc3c(c2F)OC(F)(F)O3)nc1C(=O)O
GR90 ECHCO / g ai/ha: 11

Mol: COC(=O)c1nc(-c2ccc3c(c2F)OC(F)(F)O3)c(F)c(N)c1Cl
GR90 ECHCO / g ai/ha: 21

Mol: Nc1c(F)c(-c2cc3c(cc2F)OC(F)(F)O3)nc(C(=O)O)c1Cl
GR90 ECHCO / g ai/ha: 6

Mol: COC(=O)c1nc(-c2ccc3c(c2F)OC(F)(F)O3)cc(N)c1Cl
GR90 ECHCO / g ai/ha: 3

Mol: Nc1c(F)c(-c2ccc3c(c2F)OC(F)(F)O3)nc(C(=O)O)c1Cl
GR90 ECHCO / g ai/ha: 14

Mol: Nc1cc(-c2ccc3c(c2F)OC(F)(F)O3)nc(C(=O)O)c1Cl
GR90 ECHCO / g ai/ha: 1

Mol: COc1c(C(=O)O)nc(-c2ccc3c(c2)OC(F)(F)O3)c(F)c1N
GR90 ECHCO / g ai/ha: 6

Mol: Nc1cc(-c2cc3c(cc2F)OC(F)(F)O3)nc(C(=O)O)c1Cl
GR90 ECHCO / g ai/ha: 0.268

----------
Tested on: Key Broadleaf Weed and Crop Species
Test Name: Post-Emergent Test II: postemergent herbicidal activity, visual rating after 14 d (Table 7)
Format: in vivo
Measurement Context: post-emergence, 336 h, lambsquarters (Chenopodium album), 140 g ai/ha, read-out: Visual Growth Reduction (%) 14 Days After Application CHEAL
Reported pest or weed control at 140 g/ha values are given for each entry in this list.

Compound: COC(=O)c1nc(-c2ccc(F)c3c2OC(F)(F)O3)c(F)c(N)c1Cl [Compound 76]
Measurement Target: Key Broadleaf Weed and Crop Species
pest or weed control at 140 g/ha: 95 to 100%

Compound: CC1(C)Oc2ccc(-c3nc(C(=O)O)c(Cl)c(N)c3F)cc2O1 [Compound 19]
Measurement Target: Key Broadleaf Weed and Crop Species
pest or weed control at 140 g/ha: 0 to 29%

Compound: COC(=O)c1nc(-c2ccc3c(c2)OC(F)(F)O3)nc(N)c1OC [Compound 62]
Measurement Target: Key Broadleaf Weed and Crop Species
pest or weed control at 140 g/ha: 0 to 29%

Compound: COC(=O)c1nc(-c2cc3c(cc2F)OCO3)cc(N)c1Cl [Compound 45]
Measurement Target: Key Broadleaf Weed and Crop Species
pest or weed control at 140 g/ha: 95 to 100%

Compound: COC(=O)c1nc(-c2ccc(I)c3c2OC(F)(F)O3)c(F)c(N)c1Cl [Compound 79]
Measurement Target: Key Broadleaf Weed and Crop Species
pest or weed control at 140 g/ha: 85 to 94%

Compound: COC(=O)c1nc(-c2ccc3c(c2)OC(F)(F)O3)nc(N)c1Cl [Compound 60]
Measurement Target: Key Broadleaf Weed and Crop Species
pest or weed control at 140 g/ha: 85 to 94%

Compound: COC(=O)c1nc(-c2ccc3c(c2)OC(C)(C)O3)nc(N)c1OC [Compound 67]
Measurement Target: Key Broadleaf Weed and Crop Species
pest or weed control at 140 g/ha: 0 to 29%

Compound: COC(=O)c1nc(-c2cc3c(cc2F)OCO3)c(F)c(N)c1OC [Compound 26]
Measurement Target: Key Broadleaf Weed and Crop Species
pest or weed control at 140 g/ha: 0 to 29%

Compound: COC(=O)c1nc(-c2cc3c(cc2Cl)OC(F)(F)O3)c(F)c(N)c1Cl [Compound 12]
Measurement Target: Key Broadleaf Weed and Crop Species
pest or weed control at 140 g/ha: 0 to 29%
